The values you see were collected from patent US20040018971A1.

# testedSystem: HLA-A*0206 (human)
# testName: competition for purified HLA vs 125I-labelled probe peptide, gel filtration
# conditionLabel: remark: other sources report otherwise
assayMetric: IC50 (nM)
Kindly provide the numeric value in nM only, without the unit symbol.

Prompt: Item under review: VLLGVVFGV [Her2/neu.665.L2V9] . Reported IC50?
Completion: 6
